molecular target: human ether-à-go-go-related gene (hERG) potassium channel (human, UniProt Q12809); assay: primary screen, population patch clamp on CHO cells stably expressing hERG; higher = less effect of the substance;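 further: peak tail current of the secondary pulse compared with the same well before compound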
Sequence (Q12809 whole entry, looked up): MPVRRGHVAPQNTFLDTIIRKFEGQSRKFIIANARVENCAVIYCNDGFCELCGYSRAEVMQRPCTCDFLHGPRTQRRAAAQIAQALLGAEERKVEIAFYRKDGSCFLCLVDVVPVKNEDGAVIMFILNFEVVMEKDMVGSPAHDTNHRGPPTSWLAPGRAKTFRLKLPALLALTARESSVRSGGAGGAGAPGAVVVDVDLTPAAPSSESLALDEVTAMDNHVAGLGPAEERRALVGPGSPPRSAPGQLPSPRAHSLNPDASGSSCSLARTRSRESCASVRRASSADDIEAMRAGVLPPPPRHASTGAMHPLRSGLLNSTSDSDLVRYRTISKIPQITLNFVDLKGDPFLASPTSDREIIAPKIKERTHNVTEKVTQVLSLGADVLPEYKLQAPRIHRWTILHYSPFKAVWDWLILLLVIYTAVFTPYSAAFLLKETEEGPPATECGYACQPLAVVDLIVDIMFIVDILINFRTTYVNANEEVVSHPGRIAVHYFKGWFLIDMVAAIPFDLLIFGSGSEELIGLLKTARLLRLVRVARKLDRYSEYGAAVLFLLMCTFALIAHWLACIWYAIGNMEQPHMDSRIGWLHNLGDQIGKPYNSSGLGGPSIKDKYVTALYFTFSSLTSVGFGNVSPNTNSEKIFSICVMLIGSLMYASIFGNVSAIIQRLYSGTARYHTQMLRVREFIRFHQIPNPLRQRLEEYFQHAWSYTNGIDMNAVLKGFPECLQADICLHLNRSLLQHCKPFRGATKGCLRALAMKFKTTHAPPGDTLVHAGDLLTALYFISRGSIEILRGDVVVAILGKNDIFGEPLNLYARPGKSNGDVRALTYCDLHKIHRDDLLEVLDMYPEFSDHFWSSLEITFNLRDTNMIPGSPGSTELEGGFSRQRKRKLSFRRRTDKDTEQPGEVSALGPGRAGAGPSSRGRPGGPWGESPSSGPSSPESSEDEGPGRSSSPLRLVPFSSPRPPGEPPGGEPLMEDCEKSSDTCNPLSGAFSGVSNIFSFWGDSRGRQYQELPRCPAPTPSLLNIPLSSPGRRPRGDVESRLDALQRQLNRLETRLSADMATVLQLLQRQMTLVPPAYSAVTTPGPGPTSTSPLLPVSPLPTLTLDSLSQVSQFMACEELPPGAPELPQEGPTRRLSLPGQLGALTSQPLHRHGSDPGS
The whole screen tested about 310,000 compounds, of which about 14,000 (4.5%) showed an effect of 50% or more. The effect is printed as a negative number. The list comes from a sample in which strong results are over-represented; it also holds close analogues and randomly drawn compounds.
Provide the recorded hERG current change (%, negative = inhibition) at 10uM for the entries that follow.
Give bare numbers, in %.

COc1cccc(NC(=O)C(=O)NCC(c2ccco2)N2CCc3ccccc3C2)c1 (centres unmarked); -9.29
O=C(NCC(c1ccco1)N1CCc2ccccc2C1)c1cccc(Br)c1 (centres unmarked); -5.34
O=C(NCC(c1ccco1)N1CCc2ccccc2C1)c1cccc([N+](=O)[O-])c1 (centres unmarked); -67.2
O=C(NCC(c1ccco1)N1CCCC1)c1ccc(Cl)c(S(=O)(=O)N2CCc3ccccc32)c1 (centres unmarked); -51

Now for another entry.
hERG current change (%, negative = inhibition) at 10uM recorded for this compound, O=C(NCC(c1ccco1)N1CCOCC1)c1cccc([N+](=O)[O-])c1 (centres unmarked) , is 12.7
